Tested on: hepatocarcinoma cell line (HepG2)
Assay: Cytotoxic activity, antiproliferative SRB assay, HepG2
Type: cell-based, human
Conditions: Homo sapiens, HepG2; SRB assay, mean ± SEM, n = 3
Counter-ions that a name gives are not always drawn.
valueKind: IC50 (µg/mL)
Answers are plain numbers, in µg/mL.

{"compound": "COc1ccc(CCC(=O)c2ccc(O)cc2)c(OC)c1", "systemUnderTest": "hepatocarcinoma cell line (HepG2)", "quantitativeReadout": 20.7}

Respectfully, I request IC50 for each entry included below.
1. COc1cc(OC)c(CCC(=O)c2ccc(O)cc2)c(OC)c1
2. CC[C@]1(O)C[C@H]2CN(CCc3c([nH]c4ccccc34)[C@@](C(=O)OC)(c3cc4c(cc3OC)N(C=O)[C@H]3[C@@](O)(C(=O)OC)[C@H](OC(C)=O)[C@]5(CC)C=CCN6CC[C@]43[C@@H]65)C2)C1 [Vincristine sulfate, reference compound]
3. COc1ccc(C[C@]2(O)COc3cc(O)cc(O)c3C2=O)cc1

// result
1: 20; 2: 0.012; 3: 25.8

Taken from paper PMC9373486.
